experimentSummary: yeast display, Sf9 membrane polyspecificity reagent, FACS + sequencing; frameworks hold sequencing errors
endpointLabel: polyreactivity (PSR sort gate)

{"columns": ["sequenceEntry", "result"],
 "data": [
  ["QVQLVESGGGLVQAGGSLRVSCAASGIIFRIYAMGWYRQAPGKEREFVAAISGSGDSTYYADSVKGRLTISRDNAKTTVYLQMNSLKPEDTAVYYCAADWTLVYYHEDYWGQGTQVTVSS", "low polyreactivity"],
  ["QVQLVESGGGLVHAGGSLRLSCAASGNTFWPYAMGWYRQAPGKERELVAAINYSGTRTYYSDSVKGRFTISRDNAKNTVYLQMNSLKPEDTAVYYCAKATSPPGTTAGGYDYWGQGTQVTVSS", "low polyreactivity"]
]}

----------
experimentSummary: yeast display, Sf9 membrane polyspecificity reagent, FACS + sequencing; frameworks hold sequencing errors
endpointLabel: polyreactivity (PSR sort gate)

Known results for sequences:
{"columns": ["sequenceEntry", "result"],
 "data": [
  ["QVQLVESGGGLLQAGGSLRLISAASGGIFIRYAMGWYRQAPGKERALVAAITQSGAGTNYADSVKGRFTISRDNAKNTVYLQKYSLKPEDTAVYYCAKEALLPIRRLTHARTRYNFWGQGTQVTVSS", "low polyreactivity"],
  ["QVQLVESGGGLVQAGGSLRLSCAASGRIFTAYTMGWYRQAPGKERELVAAISTSGTSTYYADSVKGRFTISRDNAKNTVYLQMNSLKPEDTAVYYCATDYYYYPHSQYDYWGQGTQVTVSS", "low polyreactivity"],
  ["QDQLVESGGGLVQAGGSLRLSCAPSGFIFEYNAMGWYRQAPGKESELVADISFSGGSTYYADSVKVRFTISRDNAKNTVYLQMKSLKPEDTAGYYCAARALASVSAHKYDYWGQGTQVTVSS", "low polyreactivity"],
  ["QVQLVESGGGLVQAGGSLRLSCAASGRTFAKYAMGWYRQAPGKERELVAAIRWSGGSTYYADSVKGRFTISRDNAKNTVYLQMNSLKPEDTAVYYCAARPALWGRYRGYDYWGQGTQVTVSS", "high polyreactivity"]
]}

Q: Given QVQLVESGGGLVQAGGSLRLSCAASGRTFRKYGMGWYRPAPGTERELVAAITRSGGSTYYADSVKGRFTISRDNAKNTVYLQMNCLKPEDTSVYYCARSPVVVGSFLSYDYLGQGTQVTVSS , state its recorded polyreactivity (PSR sort gate).
Ans: high polyreactivity

----------
experimentSummary: yeast display, Sf9 membrane polyspecificity reagent, FACS + sequencing; frameworks hold sequencing errors
endpointLabel: polyreactivity (PSR sort gate)

{"columns": ["sequenceEntry", "endpointLabel", "result"],
 "data": [
  ["QVQIVESGGGLVQAGGSLRVSCAASGRTFSWYAMGWYRQARGKEWEIVAAIRWSGSSTYYADSVKGRFTISRDNAKNTVYLQMNSLKPEDTAVYYCAVAAGIPQRRYYYWGQGTQVTVSS", "polyreactivity (PSR sort gate)", "high polyreactivity"],
  ["QVQLVESGGGLVQAGGSLRLSCAASGLIFRWYAMGWYRQAPGKEREMVAAITSGGTTNYADSVTGRFTISRDNAKNTVYFQMNSLKPEHSAVYSCNAIVLSYSRYDYWGQGTQVTVSS", "polyreactivity (PSR sort gate)", "high polyreactivity"],
  ["QVQLVESGGGLVQAGGSLRLSCAASGRIFRWYAMGWYRQAPGKERELVATISSTGGSTYYADSVKGRFTISRDNAKNTDYLQMNSLKPEDTAVYDCNAVVYGIFLYAWYDYWGQGTQVTVSS", "polyreactivity (PSR sort gate)", "low polyreactivity"],
  ["QVQLVESGGGLVQAGGSLRLSCAASGSTFRKYAMGWYRQAPGKERELVAAISRGGDSTYYADSVKGRFTISRENAKNTVYLQMNSLKPEDTAVYYCAADTRPGYSGFEYRGQGTQVTVSS", "polyreactivity (PSR sort gate)", "high polyreactivity"],
  ["QVQLVESGGGLVQAGGSLRLSCAATGFIFYEYPMGWYRQAPGKERELVASINSDGRTDYADSVKGRFTISRDNAKNTVYLQMNSLKPEDTAVYYCAAALGYYGRHPYDYWGQGTQVTVSS", "polyreactivity (PSR sort gate)", "low polyreactivity"],
  ["QVQLVESGGGLVQAGGSLRLSCAASGRIFTCYAMGWYRQAPGKERELVAAISSAGRTYYADSVKGRFTISRDNAKNTVYLQMNSLKPEDSAVYYCAKVSKYRHFYTFDYWGQGTQVTVSS", "polyreactivity (PSR sort gate)", "high polyreactivity"],
  ["QVQLVESGGGLVQEGASLRLICAASGRTSYRYAMGWNRQAPGKERELVAAISFGGGSTYYADSVKGRFTISRDYAKNTVYLQMNSLKPEDTAVYYCATDRVKYRNIYTDTGFDYWGQGTQVTVSS", "polyreactivity (PSR sort gate)", "high polyreactivity"],
  ["QVQLVESGGGLVQAGGSLRLSCAASGSIFFGYAMGWYRPAPGKERELVAAISSDGSTYYADSVKGRFTISRDNAKNTVYLQMNSLKPEDTAVYYCNAEQAIFYWYATVTYDYWGQGTQVTVSS", "polyreactivity (PSR sort gate)", "low polyreactivity"],
  ["QVQLVDSGGGLVQAGGSLRLSCAASASTFEYYTMGWYRHAPGKERQLVASIRSSGTSTYYADCVKGRFTISRDNAKNTVYLQMNSLKPEDTAVSYWAATVLSIYVSSYGFWGQGTQVTVSS", "polyreactivity (PSR sort gate)", "high polyreactivity"],
  ["QVQLVESGGGLVQAGGSLRLSCAASGRIFSLYAMGWYRQAPGKERELVATMDSNGGSTYYADSVKGRFTISRDNAKNTVYLQMNSLKPEDTAVYYCAAERYVRVWVAGILHYDYWGQGTQVTVSS", "polyreactivity (PSR sort gate)", "low polyreactivity"]
]}

Q: Given QVQLVESGGGIVQAGGSLRLSCAASGFIFWKNAMGWYSQAPGKERELVAAISTRGGSTYYADSVKGRFTISRDNAKNTVYLQMNSLKPEDTAVYYCNKEWYPYKHNYWGQGTQVTVSS , state its recorded polyreactivity (PSR sort gate).
Ans: low polyreactivity

Q: For QVQLVESGGGLVQAGGSLRLSCAASGGTFTFYAMGWYRQATGKEMELVATINWSGGSTYYADSVKGRFTISRDNAKNTVYLQMNSLKPEDTAVYYCNAAWPYKSVEYWGQGTQVTVSS then?
Ans: low polyreactivity

Q: For QVQLVESGGGLVQAGGSLRLRCAASGNIFDRYAMGWYRQAPGKERELVAAISWSDGTTYYADSVKGRFTISRDNAKNTVYLQMNTLKPEDTAVYNCAGVYTYPLGYYHYTYDDWGQGTQVSVSS then?
Ans: low polyreactivity

Q: For QVQLVESGGGLVQAGGSLRLCCAASGYIFGWYTMGWYRPAPGKERELVAAISGGGRTYYADSVKGRFTISRDNAKNTVYLQKNSLKPEDTAVYYCNAYSTYIKYDYWGQGTQVTVSS then?
Ans: high polyreactivity

Q: For QVQLGESGGGLVQAGGSLRLSCAASGYTFRPYAMGGYRQAPGKESELVAAISSGDSTNYADSVKGRFTISRDNAKNTVYLQMNSLNPEDTAVYYCAARRVGGGFYTWRNPAYEYWGQGTQVTVSS then?
Ans: high polyreactivity

Q: For QVQLQESGGGLVQAGGSLRLSCAASGYISQSSVMGWYRQAPGKEREFVASISYGATTYYADSVKGRFTISRDNAKNTVYLQTNSPKPEDTAVYYCAVWVKRGFSHRYWGQGTQVTVSS then?
Ans: high polyreactivity

Q: For QVQLVESGGGLVQAGGSLRLSCAASGRTFSKYAMGWYRQAPGKERELVAAISKRGGSTSYADSVKGRFTISRDNAKNTVYLQMNSLKPEDTAVYYCAADGNRNYLYWPYGYWGQGTQVTVSS then?
Ans: high polyreactivity

Q: For QVQLVESVGGLVQAGGSLRLSCAASGSTFGHNAMGWYRQAPGKERELVAVITSGGSTYYADSVKGRFTISRDNAKNTVYLQMNSLKPEDTAVYYCAKRYWSRGSKSSPYAYDYWGQGTQVTVSS then?
Ans: high polyreactivity

Q: For QVQLVESGGGLVQAGGSLRLSCAASGRIFGYIAMGWYRPAPGKERELVAAISWSGGSTYYADSVKGRFTISRDNAKNTVYLQMNSLKPEDTAVYYCAADSQDGYFYWGQGTQVTVSS then?
Ans: low polyreactivity

Q: For QVQLVESGGGLVQAGGSLRLSCAASGRLFSYYAMGWYRPAPGKERELVAGISYRGGSTYYADSVKGRFTISRDNAKNTVYLQMNSLKPEDTAVYYCAARPYSYGQRSLRGYWGQGTQVTVSS then?
Ans: high polyreactivity

Q: For QVQLVESGGGLVQAGGSLRLSCAASGSTFRRNAMGWYRQAPGKERELVAAIDKSGGTTYYADSVKGRFTISRDNAKNTVYLQMNSLKPEDTAVYYCAVRSYLSSRGSHDYWGQGTQVTVSS then?
Ans: low polyreactivity
